target: RVV-X (Russell's viper venom factor X activator) (UniProt Q7LZ61;Q4PRD1;Q4PRD2 Q7LZ61:189-619,Q4PRD1:24-146,Q4PRD2:25-158); assay: EMSA; scrambled SEQ 1, negative control; conditions: tags: Haematologic Technologies; label: 32P end
Sequence (Q7LZ61 189-619, chain 1 of 3): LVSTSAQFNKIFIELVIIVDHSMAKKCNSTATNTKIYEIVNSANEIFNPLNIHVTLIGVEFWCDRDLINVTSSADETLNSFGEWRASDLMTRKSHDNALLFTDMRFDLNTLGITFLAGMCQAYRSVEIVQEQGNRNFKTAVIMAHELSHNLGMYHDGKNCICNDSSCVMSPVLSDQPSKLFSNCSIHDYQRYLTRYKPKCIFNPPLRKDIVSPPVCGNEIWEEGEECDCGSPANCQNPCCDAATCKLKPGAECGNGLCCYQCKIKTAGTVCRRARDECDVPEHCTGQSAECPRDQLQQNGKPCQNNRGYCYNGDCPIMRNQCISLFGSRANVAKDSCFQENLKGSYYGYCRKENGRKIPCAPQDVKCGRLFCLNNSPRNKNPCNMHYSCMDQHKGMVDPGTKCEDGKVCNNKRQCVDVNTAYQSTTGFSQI
Sequence (Q4PRD1 24-146, chain 2 of 3): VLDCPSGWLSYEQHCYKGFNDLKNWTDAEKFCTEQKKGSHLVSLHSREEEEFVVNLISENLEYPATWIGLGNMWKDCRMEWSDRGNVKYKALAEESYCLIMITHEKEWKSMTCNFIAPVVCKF
Sequence (Q4PRD2 25-158, chain 3 of 3): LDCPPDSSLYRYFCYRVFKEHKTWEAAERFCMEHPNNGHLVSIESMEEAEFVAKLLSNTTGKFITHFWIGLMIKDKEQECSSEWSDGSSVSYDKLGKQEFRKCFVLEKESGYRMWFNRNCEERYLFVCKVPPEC
quantity.name: pKd
// pKd: -log10(molar conc.)

[ask] # input binder: Scrambled SEQ ID NO. 107 (ssRNA) RNA: GGAGGCCAACUAAUAACGCCAGAACUAUAGGAAUCCCAUGAAGCGAGCGAGAAUU ; wanted: its pKd
[reply] 6.88
